Tested on: horse erythrocytes
Conditions: 150 µM
Square brackets hold non-standard residues; d marks the D form. Peptide text beside a SMILES is read from it. * marks the point of attachment. Butyryl = CCCC(=O)*
Kind request: treat 40% as inclusive, so Hemolysis at 40% or higher is 1.0, anything lower is 0.0.

{"columns": ["Compound", "Group label"],
 "data": [
  ["CC[C@H](C)[C@H](N)C(=O)N[C@@H](CC(C)C)C(=O)N1CCC[C@H]1C(=O)N[C@@H](Cc1c[nH]c2ccccc12)C(=O)N[C@@H](CCCCN)C(=O)N[C@@H](Cc1c[nH]c2ccccc12)C(=O)N1CCC[C@H]1C(=O)N[C@@H](Cc1c[nH]c2ccccc12)C(=O)N[C@@H](Cc1c[nH]c2ccccc12)C(=O)N1CCC[C@H]1C(=O)N[C@@H](Cc1c[nH]c2ccccc12)C(=O)N[C@@H](CCCNC(=N)N)C(=O)N[C@@H](CCCNC(=N)N)C(N)=O", 1.0]
]}

Exam item: Determine whether measured Hemolysis meets or exceeds 40% for CC[C@H](C)[C@H](NC(=O)CN)C(=O)N[C@@H](CC(C)C)C(=O)NCC(=O)N[C@@H](CCCCN)C(=O)N[C@@H](CC(C)C)C(=O)N[C@@H](Cc1c[nH]c2ccccc12)C(=O)N[C@@H](CCC(=O)O)C(=O)NCC(=O)N[C@H](C(=O)N[C@@H](CCCCN)C(=O)N[C@@H](CO)C(=O)N[C@H](C(=O)N[C@@H](Cc1ccccc1)C(N)=O)[C@@H](C)CC)C(C)C [HP1404] (H-GILGKLWEGVKSIF-NH2)
Marked response: 1.0

Exam item: Answer whether Hemolysis of CC[C@H](C)[C@H](NC(=O)[C@H](CCCNC(=N)N)NC(=O)[C@@H](N)Cc1ccccc1)C(=O)N[C@@H](CCCNC(=N)N)C(=O)N[C@H](C(=O)N[C@@H](CCCNC(=N)N)C(=O)N[C@H](C(N)=O)C(C)C)C(C)C [FV7] (H-FRIRVRV-NH2; N-terminus assumed) is greater than or equal to 40%.
Marked response: 0.0

Exam item: Is reported Hemolysis greater than or equal to 40% here: CC[C@H](C)[C@H](NC(=O)[C@H](CCCNC(=N)N)NC(=O)[C@@H](NC(=O)[C@H](C)NC(=O)[C@@H](NC(=O)[C@@H](NC(=O)[C@H](CC(C)C)NC(=O)[C@H](CCCNC(=N)N)NC(=O)[C@@H](N)C(C)C)[C@@H](C)CC)C(C)C)C(C)C)C(=O)N[C@@H](Cc1c[nH]c2ccccc12)C(=O)N[C@@H](CCCNC(=N)N)C(=O)N[C@@H](CCCNC(=N)N)C(N)=O [IDR-1018] (H-VRLIVAVRIWRR-NH2; N-terminus and C-terminus assumed)
Marked response: 0.0

Exam item: Does Hemolysis meet or surpass 40% for CC[C@H](C)[C@H](NC(=O)[C@H](CCCNC(=N)N)NC(=O)[C@H](CCCNC(=N)N)NC(=O)[C@H](CC(C)C)NC(=O)[C@H](Cc1c[nH]c2ccccc12)NC(=O)[C@H](C)NC(=O)[C@H](CCCCN)NC(=O)[C@@H](NC(=O)[C@H](CCCNC(=N)N)NC(=O)[C@H](CCCNC(=N)N)NC(=O)[C@H](CC(C)C)NC(=O)[C@@H](N)Cc1c[nH]c2ccccc12)[C@@H](C)CC)C(=O)N[C@@H](CCCCN)C(=O)N[C@@H](C)C(=O)O ?
Marked response: 0.0

Exam item: State whether the measured Hemolysis reaches 40%, counting equality as reaching it, for CCCC(=O)N[C@H](C(=O)N[C@@H](CC(C)C)C(=O)N1CCC[C@H]1C(=O)N[C@H](Cc1ccccc1)C(=O)N[C@@H](CCCCN)C(=O)N[C@H](Cc1ccccc1)C(=O)N1CCC[C@H]1C(=O)N[C@H](Cc1ccccc1)C(=O)N[C@H](Cc1ccccc1)C(=O)N1CCC[C@H]1C(=O)N[C@H](Cc1ccccc1)C(=O)N[C@@H](CCCNC(=N)N)C(=O)N[C@@H](CCCNC(=N)N)C(N)=O)[C@@H](C)CC [BP526] (Butyryl-ILP[dF]K[dF]P[dF][dF]P[dF]RR-NH2)
Marked response: 0.0

Exam item: Check this compound for Hemolysis at or above 40%: CC[C@H](C)[C@H](NC(=O)[C@H](CCCNC(=N)N)NC(=O)[C@@H](NC(=O)[C@H](Cc1c[nH]c2ccccc12)NC(=O)[C@@H](NC(=O)[C@@H](NC(=O)[C@@H](N)CCCNC(=N)N)[C@@H](C)CC)C(C)C)C(C)C)C(=O)N[C@@H](CCCNC(=N)N)C(=O)N[C@@H](CCCNC(=N)N)C(=O)N[C@@H](Cc1c[nH]c2ccccc12)C(=O)N[C@@H](Cc1ccccc1)C(=O)N[C@H](C(N)=O)C(C)C [RJK2] (H-RIVWVRIRRWFV-NH2)
Marked response: 0.0

Exam item: Quick check: does CC[C@H](C)[C@H](NC(=O)[C@H](C)NC(=O)[C@H](Cc1c[nH]cn1)NC(=O)[C@@H]1CCCN1C(=O)[C@@H](NC(=O)[C@H](CC(C)C)NC(=O)[C@H](CO)NC(=O)[C@H](Cc1ccccc1)NC(=O)[C@H](CC(C)C)NC(=O)[C@@H](N)Cc1ccccc1)[C@@H](C)CC)C(=O)NCC(=O)NCC(=O)N[C@@H](CC(C)C)C(=O)N[C@H](C(=O)N[C@@H](CO)C(=O)N[C@@H](C)C(=O)N[C@@H](Cc1ccccc1)C(=O)N[C@@H](CCCCN)C(N)=O)[C@@H](C)CC have Hemolysis greater than or equal to 40%?
Marked response: 1.0

Exam item: Assess whether reported Hemolysis for CC[C@H](C)[C@H](NC(=O)[C@H](CCCNC(=N)N)NC(=O)[C@H](Cc1ccccc1)NC(=O)[C@H](CCCNC(=N)N)NC(=O)[C@@H](N)CCCCN)C(=O)N[C@@H](CCCNC(=N)N)C(=O)N[C@H](C(=O)N[C@@H](CCCNC(=N)N)C(=O)N[C@H](C(=O)N[C@H](C(=O)N[C@@H](CCCNC(=N)N)C(=O)N[C@@H](CCCCN)C(N)=O)[C@@H](C)CC)C(C)C)C(C)C [HH15] (H-KRFRIRVRVIRK-NH2) sits at 40% or higher.
Marked response: 0.0

Exam item: Decide: Hemolysis of CC[C@H](C)[C@H](NC(=O)[C@H](CCCNC(=N)N)NC(=O)[C@H](CCCNC(=N)N)NC(=O)[C@H](Cc1c[nH]c2ccccc12)NC(=O)[C@H](Cc1ccccc1)NC(=O)[C@@H](N)C(C)C)C(=O)N[C@@H](CCCNC(=N)N)C(=O)N[C@H](C(=O)N[C@@H](Cc1c[nH]c2ccccc12)C(=O)N[C@H](C(=O)N[C@H](C(=O)N[C@@H](CCCNC(=N)N)C(N)=O)[C@@H](C)CC)C(C)C)C(C)C [LJK2] (H-VFWRRIRVWVIR-NH2) >= 40%?
Marked response: 0.0

# credit: paper PMC8606745
